The reported measurements were obtained from PubChem BioAssay (NCI).

METHOD_NOTES: NCI Yeast Anticancer Drug Screen. Data for the mec2-1 strain (AID 157)
MEASUREMENT_SETUP: S. cerevisiae mec2-1 strain, at 50.0 µM, stronger effect = higher value
Method: Growth inhibition of yeast strains with defined genetic alterations is measured as a screen for potential anti-cancer activity. Selected strains with alterations in DNA damage repair or cell cycle control were exposed to compounds and growth inhibition was measured relative to vehicle treated controls. The strain used in this assay is mec2-1
This is part of a sample that, as a whole, favours compounds with a hit. Of some 79,000 tested, about 15% had one in any assay.
QUANTITY_MEASURED: growth inhibition (%)
Give just the numeric value; % need not be written.

[ask] Dear colleague, I am looking for the recorded growth inhibition of the following compound: CCC1(O)CC(O)c2c(O)c3c(c(O)c2C1C(=O)OC)C(=O)c1cccc(O)c1C3=O (stereo unspecified)
[reply] 39.8

[ask] Dear colleague, I am looking for the recorded growth inhibition of the following compound: CC(C)(CBr)COP1(=O)NCC(C)(C)CO1 (stereo unspecified)
[reply] -3.7

[ask] Dear colleague, I am looking for the recorded growth inhibition of the following compound: O=C(O)CC(=O)O.[Ti].[c-]1[c-][c-][cH-][c-]1.[c-]1[c-][c-][cH-][c-]1
[reply] -5.75

[ask] Dear colleague, I am looking for the recorded growth inhibition of the following compound: CCOC(=O)C1=C(C)N2CCCOC2(C)C(C(=O)OC)C1c1cccc([N+](=O)[O-])c1 (stereo unspecified)
[reply] 10.8

[ask] Dear colleague, I am looking for the recorded growth inhibition of the following compound: CN1C2CCCC1CC(=O)C2
[reply] -3.55

[ask] Dear colleague, I am looking for the recorded growth inhibition of the following compound: NC(=O)C(Cl)(Cl)Cl
[reply] 9.25

[ask] Dear colleague, I am looking for the recorded growth inhibition of the following compound: CNC1C(O)CC(OC2C/C=C(\C)C/C(C)=C/C=C/CCC(C)CNC(=O)/C=C/C=C/C2C)OC1C (stereo unspecified)
[reply] 63.1

[ask] Dear colleague, I am looking for the recorded growth inhibition of the following compound: COc1ccc(NC2Oc3cc4c(cc3C(c3cc(OC)c(OC)c(OC)c3)C2C)OCO4)cc1 (stereo unspecified)
[reply] 18.9

[ask] Dear colleague, I am looking for the recorded growth inhibition of the following compound: O=[N+]([O-])c1cc(/C=N\NC(=S)NC2CN3CCC2CC3)ccc1Cl (stereo unspecified)
[reply] -24.1

[ask] Dear colleague, I am looking for the recorded growth inhibition of the following compound: COC1OCCC[CH]1[Hg][Cl] (stereo unspecified)
[reply] 99.3

[ask] Dear colleague, I am looking for the recorded growth inhibition of the following compound: CCC1(CC)C(=O)C=CNC1=O
[reply] -20.6

----------
Exercise: state measured growth inhibition for each of the compounds provided.
METHOD_NOTES: NCI Yeast Anticancer Drug Screen. Data for the mlh1 rad18 strain (AID 175)
MEASUREMENT_SETUP: S. cerevisiae mlh1 rad18 strain growth inhibition; at 50.0 µM; stronger effect = higher value
About 79,000 compounds went through this panel and 15% of them were active in at least one assay; those are over-represented in the sample as a whole.
Give just the numeric value; % need not be written.

[ask] Dear colleague, I am looking for the recorded growth inhibition of the following compound: CC(C)CC(NC=O)C(=O)NC(Cc1ccccc1)NC(=O)CNC(=O)C(C)NC(=O)C(N)Cc1ccc(O)cc1 (configuration not stated)
[reply] -6.45

[ask] Dear colleague, I am looking for the recorded growth inhibition of the following compound: N.N.N.N.O=S(=O)([O-])[O-].[Co+3].[OH3+].[OH3+]
[reply] -0.15

[ask] Dear colleague, I am looking for the recorded growth inhibition of the following compound: CC(=O)O[C@@H]1[C@@H](O)[C@H]2O[C@@H]3C=C(C)C(=O)[C@@H](O)[C@]3(CO)[C@]1(C)[C@]21CO1
[reply] 83.3

[ask] Dear colleague, I am looking for the recorded growth inhibition of the following compound: S=P(NNc1ccccc1)(NNc1ccccc1)c1ccc(Cl)cc1
[reply] 83.2

[ask] Dear colleague, I am looking for the recorded growth inhibition of the following compound: CC(Cl)C(=O)OC(C)C(=O)O (configuration not stated)
[reply] 3.4

[ask] Dear colleague, I am looking for the recorded growth inhibition of the following compound: CC(C)c1cc2c(cc1O)C1(C)CCCC(C)(C)C1CC2=O (configuration not stated)
[reply] 34.6

[ask] Dear colleague, I am looking for the recorded growth inhibition of the following compound: N#Cc1ccc(CCl)cc1
[reply] 41.7

[ask] Dear colleague, I am looking for the recorded growth inhibition of the following compound: CCOP(=O)(OCC)/C(C#N)=C/c1ccc(C#N)cc1
[reply] 55.2

[ask] Dear colleague, I am looking for the recorded growth inhibition of the following compound: O=C(COc1ccc(Cl)c(Cl)c1)NCCc1cc[n+](Cc2ccc(Cl)cc2S(=O)(=O)F)cc1
[reply] 11.9

[ask] Dear colleague, I am looking for the recorded growth inhibition of the following compound: C(#Cc1ccccc1)c1ccccc1
[reply] -3.6

[ask] Dear colleague, I am looking for the recorded growth inhibition of the following compound: C=CCn1cc2c3c(cccc31)C1CC(C)CN(C)C1C2 (configuration not stated)
[reply] 28.9

[ask] Dear colleague, I am looking for the recorded growth inhibition of the following compound: CC(C)c1ccc(-n2c(=S)[nH]c3ccccc3c2=O)cc1
[reply] 13.8

[ask] Dear colleague, I am looking for the recorded growth inhibition of the following compound: O=C([CH-]C(=O)c1ccccc1)c1ccccc1.O=C([CH-]C(=O)c1ccccc1)c1ccccc1.O=C([CH-]C(=O)c1ccccc1)c1ccccc1.[Cl-].[Hf+4]
[reply] 87.9

[ask] Dear colleague, I am looking for the recorded growth inhibition of the following compound: CC(C)(C)NC(=O)CCl
[reply] -7.85

[ask] Dear colleague, I am looking for the recorded growth inhibition of the following compound: CN1CCN(C)C(N2CCOCC2)C(C)(C)C1 (configuration not stated)
[reply] 2.85

[ask] Dear colleague, I am looking for the recorded growth inhibition of the following compound: O=C1C2C(C(=O)N1c1ccc(O)cc1)C1(Cl)C(Cl)=C(Cl)C2(Cl)C1(Cl)Cl (configuration not stated)
[reply] 1

[ask] Dear colleague, I am looking for the recorded growth inhibition of the following compound: CCCCSP(=S)(SCCCC)c1ccc(Cl)cc1
[reply] 14.2

[ask] Dear colleague, I am looking for the recorded growth inhibition of the following compound: Cc1cccc[c]1[Sb](=[O])([OH])[OH]
[reply] -2.7

[ask] Dear colleague, I am looking for the recorded growth inhibition of the following compound: CN(C)C(=S)Oc1c(Cl)cc(S(=O)(=O)F)cc1Cl
[reply] 21.4

[ask] Dear colleague, I am looking for the recorded growth inhibition of the following compound: CN(C)C(=O)Oc1c(Cl)cccc1Cl
[reply] 14.1

[ask] Dear colleague, I am looking for the recorded growth inhibition of the following compound: CN1C(=O)C2(Cc3cn(C45CC67SSC(CO)(C(=O)N6C4Nc4ccccc45)N(C)C7=O)c4ccccc34)SSC1(CO)C(=O)N2C (configuration not stated)
[reply] 89.8

[ask] Dear colleague, I am looking for the recorded growth inhibition of the following compound: CO[C@H]1C=C[C@@]23c4cc5c(cc4CO[C@]2(O)CN(C)[C@H]3C1)OCO5
[reply] -41

----------
METHOD_NOTES: NCI Yeast Anticancer Drug Screen. Data for the sgs1 mgt1 strain (AID 161);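 further: 0% = growth of cultures given vehicle only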
MEASUREMENT_SETUP: S. cerevisiae sgs1 mgt1 strain, at 50.0 µM
The panel holds about 79,000 compounds, 15% with a hit somewhere; the sample as a whole holds those more often. Activity calls are given as the source filed them. No stated cut-off is given here; in the data, active means growth inhibition above about 70%; inactive means the rest.
Log the outcome using a class from active, inactive

[ask] Which result was noted for this compound in the test: O=C([O-])C[SH2+].[Co+3].[NH-]CC[NH-].[NH-]CC[NH-].[O-][Cl+3]([O-])([O-])O
[reply] inactive

[ask] Which result was noted for this compound in the test: O=C1OP2(c3ccccc3)(OC(=O)c3ccccc32)c2ccccc21
[reply] inactive

[ask] Which result was noted for this compound in the test: CC1(C)N=C(N)N=C(N)N1c1ccc(CCCCc2ccccc2S(=O)(=O)F)c(Cl)c1
[reply] active

[ask] Which result was noted for this compound in the test: CCC(=O)C(c1ccccc1)(c1ccccc1)C(C)CN1CCCCCCC1 (stereo not given)
[reply] inactive

[ask] Which result was noted for this compound in the test: Cc1ccccc1[N+](=O)[O-]
[reply] inactive
